Provide the reported Ki of each item.
- target-system: UniProt:P14416
- protocol-description: biochemical
Your answer is read as nM, so omit the unit and give the number.

[in] Given the molecule O=C1CCc2ccc(OCCCCN3CCN(c4ccccc4OCCF)CC3)cc2N1 , what is its reported Ki?
[out] 0.26

[in] Given the molecule O=C1CCc2ccc(OCCCCN3CCC(n4c(=O)[nH]c5ccccc54)CC3)cc2N1 , what is its reported Ki?
[out] 145

[in] Given the molecule COc1ccc(N2CCN(CCCCOc3ccc4c(c3)NC(=O)CC4)CC2)c(OC)c1 , what is its reported Ki?
[out] 25.3

[in] Given the molecule O=c1ccc2ccc(OCCCCN3CCN(c4ccccc4OCCF)CC3)cc2[nH]1 , what is its reported Ki?
[out] 0.07

[in] Given the molecule O=C1CCc2ccc(OCCCCN3CCC(O)(c4ccc(Cl)cc4)CC3)cc2N1 , what is its reported Ki?
[out] 2600

[in] Given the molecule COc1ccccc1N1CCN(CCCOc2ccc3ccc(=O)[nH]c3c2)CC1 , what is its reported Ki?
[out] 2.6

[in] Given the molecule COc1cc(C)ccc1N1CCN(CCCCOc2ccc3c(c2)NC(=O)CC3)CC1 , what is its reported Ki?
[out] 4.6

[in] Given the molecule COc1ccccc1N1CCN(CCCCCOc2ccc3ccc(=O)[nH]c3c2)CC1 , what is its reported Ki?
[out] 7.4

[in] Given the molecule CN1CN(c2ccccc2)C2(CCN(CCCCOc3ccc4c(c3)NC(=O)CC4)CC2)C1=O , what is its reported Ki?
[out] 611

[in] Given the molecule O=C1CCc2ccc(OCCCCN3CCC(n4c(=O)[nH]c5cc(Cl)ccc54)CC3)cc2N1 , what is its reported Ki?
[out] 309

[in] Given the molecule COc1ccc(N2CCN(CCCCOc3ccc4c(c3)NC(=O)CC4)CC2)cc1 , what is its reported Ki?
[out] 102

[in] Given the molecule COc1ccccc1N1CCN(CCCCOc2ccc3ccc(=O)[nH]c3c2)CC1 , what is its reported Ki?
[out] 0.14

* * *

endpoint: pKi
pKi is a log-scale quantity: -log10 of the concentration expressed in molar.

[in] For D(2) dopamine receptor (Homo sapiens, UniProt P14416), provide pKi of COc1ccccc1N1CCN(CCCOc2ccc3c(c2)NC(=O)CC3)CC1 please.
[out] 8.32

* * *

pKi data for D(3) dopamine receptor (Homo sapiens) follow.
pKi is a log-scale quantity: -log10 of the concentration expressed in molar.

[in] Given the compound O=C1CCc2ccc(OCCCCN3CCC(O)(c4ccc(Cl)cc4)CC3)cc2N1 , what is its reported pKi?
[out] 5.81

[in] Given the compound O=C1CCc2ccc(OCCCCN3CCC(n4c(=O)[nH]c5cc(Cl)ccc54)CC3)cc2N1 , what is its reported pKi?
[out] 6.24

[in] Given the compound COc1cc(C)ccc1N1CCN(CCCCOc2ccc3c(c2)NC(=O)CC3)CC1 , what is its reported pKi?
[out] 6.60

[in] Given the compound CN1CN(c2ccccc2)C2(CCN(CCCCOc3ccc4c(c3)NC(=O)CC4)CC2)C1=O , what is its reported pKi?
[out] 6.37

[in] Given the compound COc1ccccc1N1CCN(CCCOc2ccc3c(c2)NC(=O)CC3)CC1 , what is its reported pKi?
[out] 8.13

[in] Given the compound O=c1ccc2ccc(OCCCCN3CCN(c4ccccc4OCCF)CC3)cc2[nH]1 , what is its reported pKi?
[out] 8.57

[in] Given the compound COc1ccccc1N1CCN(CCCCOc2ccc3ccc(=O)[nH]c3c2)CC1 , what is its reported pKi?
[out] 8.27

[in] Given the compound O=C1CCc2ccc(OCCCCN3CCC(n4c(=O)[nH]c5ccccc54)CC3)cc2N1 , what is its reported pKi?
[out] 6.06

[in] Given the compound COc1ccc(N2CCN(CCCCOc3ccc4c(c3)NC(=O)CC4)CC2)cc1 , what is its reported pKi?
[out] 6.03
